Target: Recombinant human KIF18A (1-467 His-tagged) protein (Homo sapiens)
Construct: Recombinant human KIF18A (1-467 His-tagged) protein; His
Assay: KIF18A Enzyme Assay: microtubule-stimulated ATPase activity (ADP-Glo)
Details: 30 nM KIF18A, 30 μg/mL pig microtubules, 75 μM ATP, ADP-Glo luminescence
In this section, each of the molecules is paired with its reported pIC50.
The quantity pIC50 is defined as the negative base-10 logarithm of the molar concentration.

Guide cases for pIC50, answers given:
molecule: C[C@@H]1CN(c2cccc(NC(=O)c3ccc(N4CC(O)CC4(C)C)nc3N3CCC4(CC3)CC4)n2)CCO1 (stereo partly drawn) [Example 213]
pIC50: 6.28
//
molecule: C[C@@H]1CN(c2cccc(NC(=O)c3ncc(NS(C)(=O)=O)nc3N3CCC4(CC3)CC4)n2)CCO1 [Example 121]
pIC50: 6.19

q: Any idea what pIC50 was measured for O=C(Nc1cccnc1N1CCC2(CC1)CC2)c1cccc(N2CCOCC2)n1 [Example 245] ?
a: 6.07

q: Any idea what pIC50 was measured for CC(C)(CO)Nc1ccc(C(=O)Nc2cccc(N3CCC[C@H](O)C3)n2)c(N2CCC3(CC2)CC3)n1 [Example 228] ?
a: 7.16

q: Any idea what pIC50 was measured for CC(C)(CO)Nc1ccc(C(=O)Nc2cccc(N3CCC(O)C3(C)C)n2)c(N2CCC3(CC2)CC3)n1 (stereo not drawn) [Example 221] ?
a: 6.45

q: Any idea what pIC50 was measured for COCC(C)(CO)Nc1ccc(C(=O)Nc2cccc(N3CCO[C@H](C)C3)n2)c(N2CCC3(CC2)CC3)n1 (stereo partly drawn) [Example 217] ?
a: 6.65

q: Any idea what pIC50 was measured for C[C@@H]1CN(c2cccc(NC(=O)c3cnc(NC(C)(C)CO)cc3N3CCC4(CC3)CC4)n2)CCO1 [Example 243] ?
a: 6.36

* * *

Target: Recombinant human KIF18A (1-467 His-tagged) protein (Homo sapiens, UniProt Q8NI77)
Construct: Recombinant human KIF18A (1-467 His-tagged) protein; His
Sequence (Q8NI77 1-467): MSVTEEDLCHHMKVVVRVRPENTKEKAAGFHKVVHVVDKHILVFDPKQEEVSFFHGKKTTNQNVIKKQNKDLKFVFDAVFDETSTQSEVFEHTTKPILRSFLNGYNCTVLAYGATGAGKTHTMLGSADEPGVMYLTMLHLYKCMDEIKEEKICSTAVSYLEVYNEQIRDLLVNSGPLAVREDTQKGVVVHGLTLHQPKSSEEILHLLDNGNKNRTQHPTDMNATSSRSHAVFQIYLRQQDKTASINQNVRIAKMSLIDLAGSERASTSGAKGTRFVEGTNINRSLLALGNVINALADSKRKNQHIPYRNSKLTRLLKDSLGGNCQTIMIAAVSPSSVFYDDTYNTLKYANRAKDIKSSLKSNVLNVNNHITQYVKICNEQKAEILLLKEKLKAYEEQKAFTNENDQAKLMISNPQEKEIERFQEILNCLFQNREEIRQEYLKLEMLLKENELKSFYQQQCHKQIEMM
Sequence (P02550 whole entry partner): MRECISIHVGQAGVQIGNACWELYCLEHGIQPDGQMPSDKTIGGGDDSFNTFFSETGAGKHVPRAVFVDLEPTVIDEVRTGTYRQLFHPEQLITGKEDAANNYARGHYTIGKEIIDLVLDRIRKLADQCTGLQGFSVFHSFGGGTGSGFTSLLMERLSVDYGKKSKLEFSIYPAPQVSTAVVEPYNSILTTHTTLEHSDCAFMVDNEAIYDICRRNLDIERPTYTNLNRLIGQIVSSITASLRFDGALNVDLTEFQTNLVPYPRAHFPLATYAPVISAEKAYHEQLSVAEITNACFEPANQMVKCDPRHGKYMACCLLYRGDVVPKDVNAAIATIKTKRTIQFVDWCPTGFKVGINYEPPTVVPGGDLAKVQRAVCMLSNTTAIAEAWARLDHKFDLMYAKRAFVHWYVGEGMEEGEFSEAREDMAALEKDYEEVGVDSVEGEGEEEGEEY
Sequence (P02554 whole entry partner): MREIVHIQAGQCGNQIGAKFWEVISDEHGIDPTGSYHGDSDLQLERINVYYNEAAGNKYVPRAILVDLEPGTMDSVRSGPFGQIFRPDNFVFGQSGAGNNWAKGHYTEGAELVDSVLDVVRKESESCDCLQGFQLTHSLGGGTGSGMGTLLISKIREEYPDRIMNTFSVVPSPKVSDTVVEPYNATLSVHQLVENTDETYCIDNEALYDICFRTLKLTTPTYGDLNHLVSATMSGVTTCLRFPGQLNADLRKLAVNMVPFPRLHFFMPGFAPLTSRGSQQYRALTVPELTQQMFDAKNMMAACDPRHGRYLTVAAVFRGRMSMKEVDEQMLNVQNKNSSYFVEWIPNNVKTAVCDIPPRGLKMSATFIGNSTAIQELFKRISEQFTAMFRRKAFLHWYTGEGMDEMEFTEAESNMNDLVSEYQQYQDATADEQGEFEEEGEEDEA
Test: KIF18A Enzyme Assay: microtubule-stimulated ATPase activity (ADP-Glo)
Details: 30 nM KIF18A, 30 μg/mL pig microtubules, 75 μM ATP, ADP-Glo luminescence
measurement_name: IC50

Guide cases for IC50, answers given:
compound: Cc1cc(NC(=O)c2ccc(CS(C)(=O)=O)nc2N2CCC3(CC2)CC3)nc(N2CCOCC2)c1
tgt: Recombinant human KIF18A (1-467 His-tagged) protein (Homo sapiens, UniProt Q8NI77)
result: 0.107 µM

compound: C[C@@H]1CN(c2cccc(NC(=O)c3ccc(S(=O)(=O)NC(C)(C)C)nc3N3CCC4(CC3)CC4)n2)CCO1
tgt: Recombinant human KIF18A (1-467 His-tagged) protein (Homo sapiens, UniProt Q8NI77)
result: 0.102 µM

compound: CC(C)(CO)Nc1ccc(C(=O)Nc2cccc(N3CCCC(N)C3)n2)c(N2CCC3(CC2)CC3)n1 (stereo not shown)
tgt: Recombinant human KIF18A (1-467 His-tagged) protein (Homo sapiens, UniProt Q8NI77)
result: 0.388 µM

q: Any idea what IC50 was measured for C[C@H]1CN(c2cccc(NC(=O)c3ccc(NC(C)(C)CO)nc3N3CCC4(CC3)CC4)n2)[C@@H](C)CO1 (racemic) ?
a: 0.243 µM
